# System: in vivo angiogenesis, blood vessel count
# ASSAY COMMENT: reduction of blood vessel formation in vivo – HTS, in vivo study (AID 732);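 note: zebrafish embryos dosed at one day post fertilization; 0% = reference inhibitor and 100% = plate mean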
# RUN PARAMETERS: hits give low values;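 tested at 30 µM in the well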
Active and inactive are the calls of the source. The rule behind the calls is not given here.
RECORDED METRIC: vessel count % control

COMPOUND	RECORDED METRIC	ASSAY VALUE
CCCCS(=N)(=O)CCC(N)C(=O)O (stereo unspecified)	vessel count % control	137% (inactive)
O=Nc1c(-c2c(O)[nH]c3ccccc23)[nH]c2ccc(Br)cc12	vessel count % control	67.5% (inactive)
O=S(=O)(O)C1CCNCC1	vessel count % control	89.3% (inactive)
CCCN1C[C@H](CSC)C[C@@H]2c3cccc4[nH]cc(c34)C[C@H]21	vessel count % control	96.8% (inactive)
CN(C)CCCN1c2ccccc2CCc2ccccc21	vessel count % control	104% (inactive)
Cc1cc(NC(=O)Nc2ccc3c(ccn3C)c2)sn1	vessel count % control	112% (inactive)
O=[N+]([O-])c1cccc2cn[nH]c12	vessel count % control	136% (inactive)
COc1cc2c(cc1OC)[C@@H](c1ccccc1)CN(C)CC2	vessel count % control	91.5% (inactive)
COc1ccccc1N1CCN(CCN(C(=O)c2ccc(I)cc2)c2ccccn2)CC1	vessel count % control	105% (inactive)
C[C@]12CCC(=O)C=C1CC[C@@H]1[C@@H]2[C@@H](O)C[C@@]2(C)[C@H]1CC[C@]2(O)C(=O)CO	vessel count % control	102% (inactive)
COc1ccc2c(c1)c(CC(=O)O)c(C)n2Cc1ccc(F)cc1	vessel count % control	106% (inactive)
